Where do the numbers come from? From paper PMC6057745.

target: VGLUT1 (Rattus norvegicus); construct: full-length rat VGLUT1 fused to EGFP (pEGFP-N1); co-expressed with Rab5 Q79L-mCherry in HEK293T; whole endosome recording of isolated enlarged endosomes; experiment: whole endosome patch clamp, outward glutamate currents
Sequence (Q62634 whole entry, the tested form may be a part): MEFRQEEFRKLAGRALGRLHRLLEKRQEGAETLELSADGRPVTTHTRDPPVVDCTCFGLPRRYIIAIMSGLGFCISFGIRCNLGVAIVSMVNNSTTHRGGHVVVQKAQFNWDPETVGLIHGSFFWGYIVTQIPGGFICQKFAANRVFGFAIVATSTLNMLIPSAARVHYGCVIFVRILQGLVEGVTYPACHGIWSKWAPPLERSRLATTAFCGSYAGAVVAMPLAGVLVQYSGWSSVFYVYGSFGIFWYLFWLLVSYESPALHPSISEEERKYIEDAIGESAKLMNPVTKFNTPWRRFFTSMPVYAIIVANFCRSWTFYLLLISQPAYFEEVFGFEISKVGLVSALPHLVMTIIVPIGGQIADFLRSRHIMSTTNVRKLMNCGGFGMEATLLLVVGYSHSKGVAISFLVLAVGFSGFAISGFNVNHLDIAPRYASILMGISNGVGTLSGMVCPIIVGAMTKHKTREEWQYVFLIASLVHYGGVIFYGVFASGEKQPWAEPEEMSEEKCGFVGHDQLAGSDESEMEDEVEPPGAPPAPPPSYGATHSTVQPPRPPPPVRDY
endpoint: EC50 (µM)
Answer format: numeric, µM implied, no suffix.

Incoming: Identify EC50 associated with the molecule N[C@@H](CCC(=O)O)C(=O)O [glutamate]
Outgoing: 376
